Test system: Human Brain Tumor Cells U251MG NCI
Test summary: MTT assay, human brain tumor cell growth, U251MG NCI
Assay type: cell-based
Test parameters: U-251, 144 h, MTT six days after drug treatment, read-out: ID50(μM) values for Human Brain Tumor Cells U251MG NCI
Metric name: IC50 (µM)
Give bare numbers, in µM.

{"columns": ["Compound", "Metric name", "Value units", "Quantitative result"],
 "data": [
  ["CCNCCCCNCC1CC1CNCCCCN(CC)C(=O)CCC1=C(C)c2cc3[nH]c(cc4nc(cc5[nH]c(cc1n2)c(CCC(=O)N(CC)CCCCNCC1CC1CNCCCCNCC)c5C)C(CC)=C4C)c(CC)c3C (centres unmarked)", "IC50", "µM", 5.65]
]}

Now consider a different compound.
Please report the recorded IC50 for CCCCCCCCCCCCCC1CCN(CCCNC(=O)CCC2=C(C)c3cc4[nH]c(cc5nc(cc6[nH]c(cc2n3)c(CCC(=O)NCCCN2CCCN(C)CCCCN(C)CCCN(C)C(CCCCCCCCCCCCC)CC2)c6C)C(CC)=C5C)c(CC)c4C)CCCN(C)CCCCN(C)CCCN1C (centres unmarked) .
2.3

Cited source for all entries: patent US7026347B2
